- system-tested: T1, recombinant human Notch-1/Fc Chimera (R&D Systems Cat No 3647-TK) (human, UniProt P46531 19-526)
- T1 construct: Bought reagent; also called rhNotch-1/hFc; rhNotch-1; not shown: human Fc (hFc)
- assay-method-text: ELISA: human Notch-1/Fc coated at 2 ug/mL, Nanobody series, detection by mouse anti-Myc tag and DAMPO, OD 490 nm
value-kind: EC50 (read off the curve)

Ask: For the binder 180B3 (VHH) VHH: EVQLVESGGDLVQPGGSLRLSCAASGTVFSNNDMGWSRQAPGKERELVASFTSGGNTVYADAAKGRFTISRDNSKNTVYLEMNSLKPDDTAVYYCRVVDLLRGKLYWGQGTQVTVSS , give its reported EC50 (read off the curve).
Result: ~6 nM

Ask: For the binder 180F10 (VHH) VHH: EVQLVESGGDLVQPGGSLRLSCAASATVFSNSDMGWSRQAPGKERELVASITTDGNTLYADAAKGRFAIYRDNSKNTVYLEMNSLKPDDTAVYYCRVVDLLRGKLYWGQGTQVTVSS , give its reported EC50 (read off the curve).
Result: ~5 nM

Ask: For the binder 180F4 (VHH) VHH: EVQLVESGGGLVQAGDSLRLSCAVSGGSFSSYTMGWVRQAPGKEREAVASIWRSGGNTYYADSVKGRFTVSRDNAKHTVYLQMNSLKPEDTAVYYCAAASFAPGSRGYDYWGQGTQVTVSS , give its reported EC50 (read off the curve).
Result: ~20 nM

Ask: For the binder 180C1 (VHH) VHH: EVQLVESGGDLVQPGGSLRLSCAASRTVFSISDMGWSRQAPGKERELVASISSDNYTVYADAAKGRFTISRDNSKNTVYLEMNSLKPDDTAVYYCRVVDPLRGKLYWGQGTQVTVSS , give its reported EC50 (read off the curve).
Result: ~20 nM

Ask: For the binder 180A4 (VHH) VHH: EVQLVESGGGLVQPGGSLRLSCAASGRTSSPIAMGWFRQAPGKEREFVSGITWSGAYTHYANSVKGRFTISRDSAKNTVYLQMNSLKPEDTAVYYCTTATNSTTGYDYWGQGTQVTVSS , give its reported EC50 (read off the curve).
Result: ~7 nM
